Target: P2X7 (Homo sapiens)
Construct: endogenous in cells; host or cells: THP-1 human monocytic cell line
Sequence (Q99572 1-595): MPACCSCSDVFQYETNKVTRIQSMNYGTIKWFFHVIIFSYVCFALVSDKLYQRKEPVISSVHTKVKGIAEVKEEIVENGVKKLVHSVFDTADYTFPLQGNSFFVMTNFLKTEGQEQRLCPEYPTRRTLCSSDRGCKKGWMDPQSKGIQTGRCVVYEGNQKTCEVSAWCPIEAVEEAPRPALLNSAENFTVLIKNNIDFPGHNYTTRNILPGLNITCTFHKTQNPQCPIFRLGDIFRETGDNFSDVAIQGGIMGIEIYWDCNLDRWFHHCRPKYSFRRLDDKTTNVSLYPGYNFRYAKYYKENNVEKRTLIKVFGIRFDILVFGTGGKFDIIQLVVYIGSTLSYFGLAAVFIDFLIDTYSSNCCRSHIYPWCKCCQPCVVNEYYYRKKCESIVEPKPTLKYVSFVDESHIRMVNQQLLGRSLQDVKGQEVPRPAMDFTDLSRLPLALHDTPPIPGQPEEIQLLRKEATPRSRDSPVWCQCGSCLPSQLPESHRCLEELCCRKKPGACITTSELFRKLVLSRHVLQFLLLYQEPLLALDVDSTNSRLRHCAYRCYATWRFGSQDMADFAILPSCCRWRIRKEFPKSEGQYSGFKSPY
Assay: THP-1 YoPro uptake assay (BzATP-stimulated Yo-Pro-1 uptake)
Assay type: cell-based
Conditions: Table F-10, THP-1 cells, read-out: mean pIC50 values for P2X7 antagonism (converted)
Hi there, I'd appreciate the recorded IC50 for every entry that follows.
# number only, unit nM dropped from output

Requested read-out: IC50. Entry: O=C(NCC(c1cnc(C(F)(F)F)nc1)N1CCOCC1)c1c(Cl)ccc2nc(NCc3cc(F)cc(F)c3)ccc12 (stereo not shown)
309

Requested read-out: IC50. Entry: O=C(NCC(c1cnc(C(F)(F)F)nc1)N1CCOCC1)c1c(Cl)ccc2nc(N3CC(O)C3)ccc12 (stereo not shown)
3.02

Requested read-out: IC50. Entry: CCN1CCN(c2ccc3c(C(=O)NCC(c4cnc(C(F)(F)F)nc4)N4CCOCC4)c(Cl)ccc3n2)CC1 (stereo not shown)
5.62

Requested read-out: IC50. Entry: O=C(NCC(c1cnc(C(F)(F)F)nc1)N1CCOCC1)c1c(Cl)ccc2nc(N3CCC4(CC3)OCCCO4)ccc12 (stereo not shown)
24.5

Requested read-out: IC50. Entry: CS(=O)(=O)NCCNc1ccc2c(C(=O)NCC(c3cnc(C(F)(F)F)nc3)N3CCOCC3)c(Cl)ccc2n1 (stereo not shown)
17.4

Requested read-out: IC50. Entry: O=C(NCC(c1cnc(C(F)(F)F)nc1)N1CCOCC1)c1c(Cl)ccc2nc(N3CCC(N4CCCC4=O)CC3)ccc12 (stereo not shown)
224

Requested read-out: IC50. Entry: CN(C)[C@H]1CCN(c2ccc3c(C(=O)NCC(c4cnc(C(F)(F)F)nc4)N4CCOCC4)c(Cl)ccc3n2)C1 (stereo partly shown)
7.41

Requested read-out: IC50. Entry: CN(CCN)c1ccc2c(C(=O)NCC(c3cnc(C(F)(F)F)nc3)N3CCOCC3)c(Cl)ccc2n1 (stereo not shown)
15.8

Requested read-out: IC50. Entry: O=C(NCC(c1cnc(C(F)(F)F)nc1)N1CCOCC1)c1c(Cl)ccc2nc(N3CC[C@@H](O)C3)ccc12 (stereo partly shown)
20.9

Requested read-out: IC50. Entry: O=C(NCC(c1cnc(C(F)(F)F)nc1)N1CCC(F)(F)CC1)c1c(Cl)ccc2nc(N3CCNCC3)ccc12 (stereo not shown)
2.24

Requested read-out: IC50. Entry: O=C(NCC(c1cnc(C(F)(F)F)nc1)N1CCC(F)(F)CC1)c1c(Cl)ccc2nc(N3CCN(C4CC4)CC3)ccc12 (stereo not shown)
6.31

Requested read-out: IC50. Entry: O=C(NCC(c1cnc(C(F)(F)F)nc1)N1CCOCC1)c1c(Cl)ccc2nc(NCc3ccc4c(c3)OCO4)ccc12 (stereo not shown)
37.2

Requested read-out: IC50. Entry: C[C@H]1CCCN(c2ccc3c(C(=O)NCC(c4cnc(C(F)(F)F)nc4)N4CCOCC4)c(Cl)ccc3n2)C1 (stereo partly shown)
19.1

Requested read-out: IC50. Entry: O=C(NCC(c1cnc(C(F)(F)F)nc1)N1CCOCC1)c1c(Cl)ccc2nc(N3C[C@@H]4CN[C@H]3C4)ccc12 (stereo partly shown)
8.91

Requested read-out: IC50. Entry: O=C(NCC(c1cnc(C(F)(F)F)nc1)N1CCC(F)(F)CC1)c1c(Cl)ccc2nc(N3CCC4(CCCCN4)C3)ccc12 (stereo not shown)
5.62

Requested read-out: IC50. Entry: CNC1CN(c2ccc3c(C(=O)NCC(c4cnc(C(F)(F)F)nc4)N4CCOCC4)c(Cl)ccc3n2)C1 (stereo not shown)
24.5

Requested read-out: IC50. Entry: NCCNc1ccc2c(C(=O)NCC(c3cnc(C(F)(F)F)nc3)N3CCOCC3)c(Cl)ccc2n1 (stereo not shown)
1.12

Requested read-out: IC50. Entry: CSc1ncc(C(CNC(=O)c2c(Cl)ccc3ncccc23)N2CCC(F)(F)CC2)cn1 (stereo not shown)
10.7

Requested read-out: IC50. Entry: C[C@@H]1CN(c2ccc3c(C(=O)NCC(c4cnc(C(F)(F)F)nc4)N4CCC(F)(F)CC4)c(Cl)ccc3n2)C[C@H](C)O1 (stereo partly shown)
14.1

Requested read-out: IC50. Entry: O=C(NCC(c1cnc(C(F)(F)F)nc1)N1CCOCC1)c1c(Cl)ccc2nc(N3CCC(n4cn[nH]c4=O)CC3)ccc12 (stereo not shown)
34.7

Requested read-out: IC50. Entry: CC(CO)Nc1ccc2c(C(=O)NCC(c3cnc(C(F)(F)F)nc3)N3CCOCC3)c(Cl)ccc2n1 (stereo not shown)
7.24

Requested read-out: IC50. Entry: N[C@@H]1CCN(c2ccc3c(C(=O)NCC(c4cnc(C(F)(F)F)nc4)N4CCOCC4)c(Cl)ccc3n2)C1 (stereo partly shown)
1.35

Requested read-out: IC50. Entry: Nc1ccc2c(C(=O)NCC(c3cnc(C(F)(F)F)nc3)N3CCC(F)(F)CC3)c(Cl)ccc2n1 (stereo not shown)
3.55

Requested read-out: IC50. Entry: CN(CCN)c1ccc2c(C(=O)NCC(c3cnc(C(F)(F)F)nc3)N3CCC(F)(F)CC3)c(Cl)ccc2n1 (stereo not shown)
4.79

Requested read-out: IC50. Entry: O=C(NCC(c1cnc(C(F)(F)F)nc1)N1CCOCC1)c1c(Cl)ccc2nc(N3CCNCC3)ccc12 (stereo not shown)
6.92

Requested read-out: IC50. Entry: O=C(NCC(c1cnc(C(F)(F)F)nc1)N1CCOCC1)c1c(Cl)ccc2nc(N3CCC4(CCCN4)C3)ccc12 (stereo not shown)
7.08

Requested read-out: IC50. Entry: O=C(NCC(c1cnc(C(F)(F)F)nc1)N1CCOCC1)c1c(Cl)ccc2nc(NC3CCOCC3)ccc12 (stereo not shown)
12.6

Requested read-out: IC50. Entry: CC(=O)NC1CC2CCC(C1)N2c1ccc2c(C(=O)NCC(c3cnc(C(F)(F)F)nc3)N3CCOCC3)c(Cl)ccc2n1 (stereo not shown)
16.2

Value source: patent US8431704B2
